target: T1, anchored ILT2 D2-D3 domain protein (human, UniProt Q8NHL6 122-321); assay: flow cytometry, CHO cells with anchored ILT2 domain proteins
T1 construct: on CHO cells; the entry includes leader remnant, V5 tag and CD24 GPI anchor signal
T1 sequence (Q8NHL6 other isoform, or with tags, fused parts or gaps limits assumed): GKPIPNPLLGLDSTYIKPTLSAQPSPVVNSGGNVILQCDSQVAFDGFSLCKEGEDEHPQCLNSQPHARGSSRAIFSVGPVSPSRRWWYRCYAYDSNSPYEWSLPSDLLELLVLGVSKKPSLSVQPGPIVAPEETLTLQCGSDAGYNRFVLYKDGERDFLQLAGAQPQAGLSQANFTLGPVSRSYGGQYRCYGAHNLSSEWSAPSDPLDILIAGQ
Endpoint Label: binding result

IN: Which binding result is listed for 12D12 (antibody, human IgG1, V domains shown) VH: QVQLQQPGAELVKPGASVRMSCKASGYTFTSYWVHWVKQRPGQGLEWIGVIDPSDSYTSYNQNFKGKATLTVDTSSKTAYIHLSSLTSEDSAVYFCARGERYDGDYFAMDYWGQGTSVTVSS VL: DIVMTQSPASLSVSVGETVTITCRASENIYSNLAWYQQKQGKSPQLLVYAATNLADGVPSRFSGSRSGTQYSLKINSLQSEDFGTYYCQHFWNTPRTFGGGTKLEIK ?
OUT: no binding

IN: # binding result lookup, item 27H5 (antibody, human IgG1, V domains shown) VH: QVQLKESGPGLVAPSQSLSITCTVSGFSLTSYGVSWVRQPPGKGLEWLGVIWGDGNTNYHSALISRLSISKDNSKSQVFLKLNSLQTDDTATYYCARTNWDGWFAYWGQGTLVTVSA VL: DIVMTQSHKFMSTSVGDRVSITCKASQDVGTAVAWYQQKPGQSPKLLIYWASTRHTGVPDRFTGSGSGTDFTLTISNVQSEDLADYFCQQYRSYPLGTFGGGTKLEIK
OUT: no binding
